// provenance: patent US4680382A

Test system: CCRF-CEM human lymphoblastic leukemic cells
testMethodNotes: In vitro cytotoxicity against CCRF-CEM cells
Format: cell-based
statedConditions: 48 hr
*1 amine or outer side, *2 acyl side, *3 side chain or, on linkers, in order; H or OH if unused. Where a SMILES comes first, the peptide text is derived from it. Bridges are numbered along the chain shown (N, C = ends). Roman numbers before positions name the chains, in order. [ ]: non-standard residue; d: D form. Actinocin(9to1) = Cc1c2oc3c(C)ccc(C(=O)[*:1])c3nc-2c(C(=O)[*:2])c(N)c1=O; NMeV = CN[C@H](C(=O)O)C(C)C; Sar = CNCC(=O)O
reportedMetric: in vitro (CCRF-CEM) ID50 (nM)

compound: Cc1c2oc3c(C)c4oc(-c5ccccc5)nc4c(C(=O)NC4C(=O)NC(C(C)C)C(=O)N5CCCC5C(=O)N(C)CC(=O)N(C)C(C(C)C)C(=O)OC4C)c3nc-2c(C(=O)NC2C(=O)NC(C(C)C)C(=O)N3CCCC3C(=O)N(C)CC(=O)N(C)C(C(C)C)C(=O)OC2C)cc1=O (stereo not shown) [10a, 2-Phenyl-AMD--OZL]
unitDescriptor: nM
recordedValue: 500

compound: Cc1c2oc3c(C)ccc(C(=O)N[C@@H]4C(=O)N[C@H](C(C)C)C(=O)N5CCC[C@H]5C(=O)N(C)CC(=O)N(C)[C@@H](C(C)C)C(=O)O[C@@H]4C)c3nc-2c(C(=O)N[C@@H]2C(=O)N[C@H](C(C)C)C(=O)N3CCC[C@H]3C(=O)N(C)CC(=O)N(C)[C@@H](C(C)C)C(=O)O[C@@H]2C)c(N)c1=O [AMD, Actinomycin D] (I: T[dV]P[Sar][NMeV] / II: T[dV]P[Sar][NMeV]; ester I:1-I:C, II:1-II:C; linker I:N-II:N via Actinocin(9to1))
unitDescriptor: nM
recordedValue: 50

compound: Cc1nc2c(C(=O)NC3C(=O)NC(C(C)C)C(=O)N4CCCC4C(=O)N(C)CC(=O)N(C)C(C(C)C)C(=O)OC3C)c3nc4c(C(=O)NC5C(=O)NC(C(C)C)C(=O)N6CCCC6C(=O)N(C)CC(=O)N(C)C(C(C)C)C(=O)OC5C)c(N)c(=O)c(C)c-4oc3c(C)c2o1 (stereo not shown) [7a]
unitDescriptor: nM
recordedValue: 110

compound: Cc1c2oc3c(C)c(O)cc(C(=O)N[C@@H]4C(=O)N[C@H](C(C)C)C(=O)N5CCC[C@H]5C(=O)N(C)CC(=O)N(C)[C@@H](C(C)C)C(=O)O[C@@H]4C)c3nc-2c(C(=O)N[C@@H]2C(=O)N[C@H](C(C)C)C(=O)N3CCC[C@H]3C(=O)N(C)CC(=O)N(C)[C@@H](C(C)C)C(=O)O[C@@H]2C)c(N)c1=O [2a, 7-hydroxyactinomycin D, reference compound]
unitDescriptor: nM
recordedValue: 1000
